- Tested on: Adult Nippostrongylus brasiliensis
- procedure.text: In Vitro Assay 5: Nippostrongylus brasiliensis (NIPOBR), acetylcholine esterase readout
- Format: cell-based
- condition.context: acetylcholine esterase activity in medium vs negative control, adult worms, read-out: EC50
quantity.name: EC50

Cc1cnc2c(C(C)C)c(C(=O)NN3CCOc4ccccc43)nn2c1-c1cc(F)cc(F)c1F [Example 9.1]	> 1 µg/mL
CC(C)c1c(C(=O)NN2CCOc3ccccc32)ccc2c1nnn2-c1cc(F)cc(F)c1F [Example 16.1]	> 1 µg/mL
CC(C)c1c(C(=O)NN2CCOc3ccccc32)nc2c(-c3cc(F)cc(F)c3F)cccn12 [Example 7.1]	> 1 µg/mL
Cc1nn2c(C(C)C)c(C(=O)NN3CCOc4ccccc43)nnc2c1-c1c(F)cccc1F [Example 5.1]	> 1 µg/mL
O=C(NN1CCOc2ccccc21)c1sc2c(-c3cc(F)cc(F)c3F)nccc2c1N1CCOCC1 [Example 2.1]	> 1 µg/mL
CC(C)c1c(C(=O)NN2CCOc3ccccc32)cnc2c(-c3cc(F)cc(F)c3F)ncn12 [Example 11.1]	> 1 µg/mL

Consider CC(C)c1c(C(=O)NN2CCOc3ccccc32)nc2c(-c3cc(F)cc(F)c3F)nccn12 [Example 8.1] . Its measured EC50 is > 1 µg/mL

Consider Cc1nn2c(C(C)(C)O)c(C(=O)NN3CCOc4ccccc43)sc2c1-c1cc(F)cc(F)c1F [Example 4.3] . Its measured EC50 is 0.1 to 1 µg/mL

Consider Cc1nn2c(C(C)C)c(C(=O)NN3CCOc4ccccc43)cnc2c1-c1c(F)cccc1F [Example 3.1] . Its measured EC50 is > 1 µg/mL

----------
- System: Adult Nippostrongylus brasiliensis
- procedure.text: In Vitro Assay 5: Nippostrongylus brasiliensis (NIPOBR), acetylcholine esterase readout
- Type: cell-based
- condition.context: acetylcholine esterase activity in medium vs negative control, adult worms, read-out: EC50
quantity.name: EC50

Here is how some compounds turned out for EC50.
CC(C)c1c(C(=O)NN2CCOc3ccccc32)sc2c(-c3cc(F)cc(F)c3F)cccc12	0.1 to 1 µg/mL
CN(C)c1c(C(=O)NN2CCOc3ccccc32)cnc2c1ccn2-c1cc(F)cc(F)c1F	> 1 µg/mL
CC(C)c1c(C(=O)NN2CCOc3ccccc32)cnc2c1cnn2-c1cc(F)cc(F)c1F	> 1 µg/mL
CC(C)c1c(C(=O)NN2CCOc3ccccc32)ccn2c(-c3c(F)ccc(F)c3F)nnc12	> 1 µg/mL
Cc1nn2c(C(C)C)c(C(=O)NN3CCOc4ccccc43)sc2c1-c1cc(F)cc(F)c1F	> 1 µg/mL
CC(C)(O)c1c(C(=O)NN2CCOc3ccccc32)sc2c(-c3cc(F)cc(F)c3F)ccnc12	0.1 to 1 µg/mL
O=C(NN1CCOc2ccccc21)c1sc2c(-c3cc(F)cc(F)c3F)c(F)cnc2c1N1CC(F)C1	> 1 µg/mL
CC(C)n1c(C(=O)NN2CCOc3ccccc32)nc2c(-c3cc(F)cc(F)c3F)cccc21	> 1 µg/mL

Form field, EC50 with Adult Nippostrongylus brasiliensis, item `O=C(NN1CCOc2ccccc21)c1sc2c(-c3cc(F)cc(F)c3F)ccnc2c1N1CC(F)C1` : > 1 µg/mL

Form field, EC50 with Adult Nippostrongylus brasiliensis, item `CC(C)c1c(C(=O)NN2CCOc3ccccc32)sc2c(-c3cc(F)cc(F)c3F)nccc12` : 0.1 to 1 µg/mL

These measurements were taken from patent US20240059680A1.
